# target.of.assay: Mdm2 (1-125) (Homo sapiens, UniProt Q00987)
# Construct: Purified MDM2 (1-125) protein was titrated against 50 nM carboxyfluorescein (FAM)-labeled; GST (N, cleaved yes); made in house; host or cells: E. coli BL21 DE3 (pGEX-6P-1)
# Sequence (Q00987 1-125): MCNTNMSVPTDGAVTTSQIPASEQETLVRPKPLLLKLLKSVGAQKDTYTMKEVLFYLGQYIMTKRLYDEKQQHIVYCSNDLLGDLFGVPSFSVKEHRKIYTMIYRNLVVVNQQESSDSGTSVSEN
# test.name: Mdm2 competitive fluorescence anisotropy assay (FAM-labeled 12/1 peptide displacement); further: 250 nM MDM2
# Assay type: binding
# measurement.parameters: read-out: Kd (apparent dissociation constant, competitive fluorescence anisotropy)
# Method: analyzed with SDS page gel and concentrated using a Centricon (3.5 kDa MWCO) concentrator, Millipore. […] Protein fractions were analyzed with SDS page gel and concentrated using a Centricon (3.5 kDa MWCO) concentrator, Millipore. Protein concentration was determined using A280 using an extinction coefficients […] Mdm2 Competitive Fluorescence Anisotropy Assay and Kd Determination […] Apparent Kd values were determined for a variety of molecules via competitive fluorescence anisotropy experiments. […]
Positions of bridges follow the written chain, without caps; N, C: chain ends. Non-standard residues stand in square brackets, D forms with d. Residues, ends and D or L forms follow the SMILES beside them. R8 = C=CCCCCCC[C@@](C)(N)C(=O)O; S5 = C=CCCC[C@](C)(N)C(=O)O
Overview of reported Kd across a group of molecules:
endpoint.name: Kd

INSERT INTO assay_data (molecule, target_of_assay, result) VALUES
  ('CC(=O)N[C@@H](CCCCN)C(=O)NCCCCCC(=O)N[C@H](C(=O)N[C@@H](CO)C(=O)N[C@@H](Cc1ccccc1)C(=O)N[C@]1(C)CCCCCCC=CCCC[C@@](C)(C(=O)N[C@@H](CCC(=O)O)C(=O)N[C@@H](CC(N)=O)C(=O)N[C@@H](Cc2ccccc2)C(N)=O)NC(=O)[C@H](CC(C)C)NC(=O)[C@H](CC(C)C)NC(=O)[C@H](C)NC(=O)[C@H](Cc2c[nH]c3ccccc23)NC(=O)[C@H](Cc2ccc(O)cc2)NC(=O)[C@H](CCC(=O)O)NC1=O)[C@@H](C)O', 'Mdm2 (1-125) (Homo sapiens, UniProt Q00987)', '15.1 nM'),
  ('CC(=O)N[C@H](C(=O)N[C@@H](CO)C(=O)N[C@@H](Cc1ccccc1)C(=O)N[C@]1(C)CCCCCCC=CCCC[C@@](C)(C(=O)N[C@@H](CCC(=O)O)C(=O)N[C@@H](CC(N)=O)C(=O)N[C@@H](Cc2ccccc2)C(N)=O)NC(=O)[C@H](CC(C)C)NC(=O)[C@H](CC(C)C)NC(=O)[C@H](C)NC(=O)[C@H](Cc2c[nH]c3ccccc23)NC(=O)[C@H](Cc2ccc(O)cc2)NC(=O)[C@H](CCC(=O)O)NC1=O)[C@@H](C)O', 'Mdm2 (1-125) (Homo sapiens, UniProt Q00987)', '19.7 nM'),
  ('CC(=O)N[C@@H](CCCCN)C(=O)N[C@@H](CCCCN)C(=O)N[C@@H](CO)C(=O)NCC(=O)N[C@@H](CO)C(=O)NCC(=O)N[C@H](C(=O)N[C@@H](CO)C(=O)N[C@@H](Cc1ccccc1)C(=O)N[C@]1(C)CCCCCCC=CCCC[C@@](C)(C(N)=O)NC(=O)[C@H](CC(C)C)NC(=O)[C@H](CC(C)C)NC(=O)[C@H](C)NC(=O)[C@H](Cc2c[nH]c3ccccc23)NC(=O)[C@H](Cc2ccc(O)cc2)NC(=O)[C@H](CCC(=O)O)NC1=O)[C@@H](C)O [VIP-151] (Ac-KKSGSGTSF[R8]EYWALL[S5]-NH2; staple 10-17)', 'Mdm2 (1-125) (Homo sapiens, UniProt Q00987)', '33.6 nM'),
  ('CC(=O)N[C@@H](CCCCN)C(=O)N[C@@H](CC(C)C)C(=O)N[C@@H](C)C(=O)N[C@@H](CCCCN)C(=O)NCCCCCC(=O)N[C@H](C(=O)N[C@@H](CO)C(=O)N[C@@H](Cc1ccccc1)C(=O)N[C@]1(C)CCCCCCC=CCCC[C@@](C)(C(N)=O)NC(=O)[C@H](CC(C)C)NC(=O)[C@H](CC(C)C)NC(=O)[C@H](C)NC(=O)[C@H](Cc2c[nH]c3ccccc23)NC(=O)[C@H](Cc2ccc(O)cc2)NC(=O)[C@H](CCC(=O)O)NC1=O)[C@@H](C)O', 'Mdm2 (1-125) (Homo sapiens, UniProt Q00987)', '3.7 nM');

###

The compounds listed here are annotated with their pKd.
# target.of.assay: Mdm2 (1-125) (Homo sapiens)
# Construct: Purified MDM2 (1-125) protein was titrated against 50 nM carboxyfluorescein (FAM)-labeled; GST (N, cleaved yes); made in house; host or cells: E. coli BL21 DE3 (pGEX-6P-1)
# test.name: Mdm2 competitive fluorescence anisotropy assay (FAM-labeled 12/1 peptide displacement); further: 250 nM MDM2
# Type: binding
# measurement.parameters: read-out: Kd (apparent dissociation constant, competitive fluorescence anisotropy)
pKd: −log10 of the molar value.
endpoint.name: pKd

INSERT INTO results (compound, result_number) VALUES
  ('CC(=O)N[C@H](CCCCN)C(=O)NCCCCCC(=O)N[C@H](C(=O)N[C@@H](CO)C(=O)N[C@@H](Cc1ccccc1)C(=O)N[C@]1(C)CCCCCCC=CCCC[C@@](C)(C(=O)N[C@@H](CCC(=O)O)C(=O)N[C@@H](CC(N)=O)C(=O)N[C@@H](Cc2ccccc2)C(N)=O)NC(=O)[C@H](CC(C)C)NC(=O)[C@H](CC(C)C)NC(=O)[C@H](C)NC(=O)[C@H](Cc2c[nH]c3ccccc23)NC(=O)[C@H](Cc2ccc(O)cc2)NC(=O)[C@H](CCC(=O)O)NC1=O)[C@@H](C)O [VIP-132]', 8.10),
  ('CC(C)C[C@@H]1NC(=O)[C@H](C)NC(=O)[C@H](Cc2c[nH]c3ccccc23)NC(=O)[C@H](Cc2ccc(O)cc2)NC(=O)[C@H](CCC(=O)O)NC(=O)[C@](C)(NC(=O)[C@H](Cc2ccccc2)NC(=O)[C@H](CO)NC(=O)[C@@H](NC(=O)CNC(=O)[C@H](CO)NC(=O)CNC(=O)[C@H](CO)NC(=O)CCCC[C@@H]2SC[C@@H]3NC(=O)N[C@@H]32)[C@@H](C)O)CCCCCCC=CCCC[C@@](C)(C(N)=O)NC(=O)[C@H](CC(C)C)NC1=O [VIP-150]', 7.27);
